Tested on: NCI-H522 lung
Assay: NCI tumour cell line growth inhibition, 48 h
Response key: condition met means TGI >= 30 µM; condition not met means TGI < 30 µM.

| COMPOUND | LABEL |
| --- | --- |
| COC(=O)C1CCC(=O)N1C(c1ccc(OC)cc1)c1ccc2c(c1)OCO2 (stereo not drawn) | condition met |

Please indicate if the recorded TGI for COc1cc(/C=C2\CN(S(=O)(=O)c3ccccc3)C/C(=C\c3cc(CN4CCCC4)c(O)c(OC)c3)C2=O)cc(CN2CCCC2)c1O meets or exceeds 30 µM. condition not met

And for C=CCSc1nnc2cc(CN3CCCC3)c(-c3ccc(Cl)cc3)nn12 ? condition met

Same again, this time with CC(C)C(C)/C=C\C(C)C1CCC2C3=CC=C4CC(O)CCC4(C)C3CCC21C (stereo not drawn) condition met

Entry to check: CCN(CC)c1ccc(-c2cc(-c3cc(OC)c(OC)c(OC)c3)nc(N3CCOCC3)c2C#N)cc1 condition met

What would you report for COc1cccc2c1OC1(C=C2)Oc2ccccc2C(=O)N1C (stereo not drawn) ? condition met

Where do these numbers come from? They come from PubChem BioAssay (NCI).
